- MEASURED TARGET: AsPC-1 HiBiT-KRASG12D (Homo sapiens, UniProt P01116, G12D)
- Construct: insert the HiBiT tag onto the N-terminus of one or more of the endogenous KRAS alleles; endogenous in cells; host or cells: AsPC-1 (ATCC CRL-1682), CRISPR-Cas9 knock-in clone, one tagged allele
- Sequence (P01116 1-188 isoform P01116-2 G12D): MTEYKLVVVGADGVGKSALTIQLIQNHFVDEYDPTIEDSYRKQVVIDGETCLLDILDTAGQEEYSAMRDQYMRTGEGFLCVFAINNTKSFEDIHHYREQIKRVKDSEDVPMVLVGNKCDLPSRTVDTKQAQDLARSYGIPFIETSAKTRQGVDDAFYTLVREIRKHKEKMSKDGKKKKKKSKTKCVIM
- ASSAY TEXT: HiBiT degradation assay (G12D), AsPC-1 HiBiT-KRASG12D cells
- Type: cell-based
- CONDITION INFO: ASPC1, AsPC-1 HiBiT-KRASG12D cells, 24 hours treatment, maximum degradation observed
Exercise: for every item that follows, state its recorded Dmax.

Below: 3 molecules and their reported Dmax.
[[record]]
molecule = "C#Cc1c(F)ccc2cc(O)cc(-c3ncc4c(N5CC6CCC(C5)N6)nc(OCCN5CCC(OC6CN(c7cc([C@@H](C(=O)N8C[C@H](O)C[C@H]8C(=O)N[C@@H](C)c8ccc(-c9scnc9C)cc8)C(C)C)on7)C6)CC5)nc4c3F)c12"
reported = "80 to 100%"

[[record]]
molecule = "CCc1cccc2cc(O)cc(-c3ncc4c(N5CC6CCC(C5)N6)nc(OCCN5CCC(COCC(=O)N[C@H](C(=O)N6C[C@H](O)C[C@H]6C(=O)N[C@@H](C)c6ccc(-c7scnc7C)c(Cl)c6)C(C)(C)C)CC5)nc4c3F)c12"
reported = "80 to 100%"

[[record]]
molecule = "CCc1cccc2cc(O)cc(-c3ncc4c(N5CC6CCC(C5)N6)nc(OCCN5CCC(CC6CCN(c7cc([C@@H](C(=O)N8C[C@H](O)C[C@H]8C(=O)N[C@@H](C)c8ccc(-c9ccnn9C)cc8)C(C)C)on7)CC6)CC5)nc4c3F)c12"
reported = "20 to 60%"


// each listed molecule needs a value for Dmax
1. CCc1cccc2cc(O)cc(-c3ncc4c(N5CCCCCC5)nc(OC[C@@H]5CC[C@@H](COC(=O)N6CCN(c7cc([C@H](C(=O)N8C[C@H](O)C[C@H]8C(=O)N[C@@H](C)c8ccc(-c9scnc9C)cc8)C(C)C)on7)[C@H](C)C6)N5C)nc4c3F)c12
2. CCc1cccc2cc(O)cc(-c3ncc4c(N5CC6CCC(C5)N6)nc(OC[C@@]56CCCN5[C@H](COC(=O)N5CCN(c7cc([C@H](C(=O)N8C[C@H](O)C[C@H]8C(=O)N[C@@H](C)c8ccc(-c9scnc9C)cc8)C(C)C)on7)[C@H](C)C5)CC6)nc4c3F)c12
3. CCc1cccc2cc(O)cc(-c3ncc4c(N5CC6CCC(C5)N6)nc(OC[C@]56CCCN5[C@H](COC(=O)N5CCN(c7cc([C@@H](C(=O)N8C[C@H](O)C[C@H]8C(=O)N[C@@H](C)c8ccc(-c9scnc9C)cc8)C(C)C)on7)CC5)CC6)nc4c3F)c12
4. CCc1cccc2cc(O)cc(-c3ncc4c(N5CC6CCC(C5)N6)nc(OCCN5CCC(CC6(F)CCN(CC(=O)N[C@H](C(=O)N7C[C@H](O)C[C@H]7C(=O)N[C@@H](C)c7ccc(-c8scnc8C)cc7)C(C)(C)C)CC6)CC5)nc4c3F)c12
5. CCc1cccc2cc(O)cc(-c3ncc4c(N5CC6CCC(C5)N6)nc(OCCN5CC[C@@H]6[C@@H](CCN6c6cc([C@@H](C(=O)N7C[C@H](O)C[C@H]7C(=O)N[C@@H](C)c7ccc(-c8scnc8C)cc7)C(C)C)on6)C5)nc4c3F)c12 (relative stereo)
6. CCc1cccc2cc(O)cc(-c3ncc4c(N5CC6CCC(C5)N6)nc(OCCN5CCC(F)(CN6CCN(c7cc([C@H](C(=O)N8C[C@H](O)C[C@H]8C(=O)N[C@@H](C)c8ccc(-c9scnc9C)cc8)C(C)C)on7)[C@H](C)C6)CC5)nc4c3F)c12
7. CCc1cccc2cc(O)cc(-c3ncc4c(N5CC6CCC(C5)N6)nc(OCCN5CCC(CC6CN(CC(=O)N[C@H](C(=O)N7C[C@H](O)C[C@H]7C(=O)N[C@@H](C)c7ccc(-c8scnc8C)cc7)C(C)(C)C)C6)CC5)nc4c3F)c12

["60 to 80%", "80 to 100%", "20 to 60%", "80 to 100%", "20 to 60%", "80 to 100%", "80 to 100%"]

// each listed molecule needs a value for Dmax
1. CCc1cccc2cc(O)cc(-c3ncc4c(N5CC6CCC(C5)N6)nc(OCCN5CCC(CC6CCN(CC(=O)N[C@H](C(=O)N7C[C@H](O)C[C@H]7C(=O)N[C@@H](C)c7ccc(-c8scnc8C)cc7)C(C)(C)C)CC6)CC5)nc4c3F)c12
2. CCc1cccc2cc(O)cc(-c3ncc4c(N5CC6CCC(C5)N6)nc(OC[C@]56CCCN5[C@H](COC(=O)N5C[C@H](C)N(c7cc([C@H](C(=O)N8C[C@H](O)C[C@H]8C(=O)N[C@@H](C)c8ccc(-c9scnc9C)cc8)C(C)C)on7)C[C@H]5C)CC6)nc4c3F)c12

1: 60 to 80%; 2: 80 to 100%

// each listed molecule needs a value for Dmax
1. CCc1cccc2cc(O)cc(-c3ncc4c(N5CC6CCC(C5)N6)nc(OCCN5CCC(OC6CN(c7cc([C@@H](C(=O)N8C[C@H](O)C[C@H]8C(=O)N[C@@H](C)c8ccc(-c9scnc9C)cc8)C(C)C)on7)C6)CC5)nc4c3F)c12
2. CCc1cccc2cccc(-c3ncc4c(N5CC6CCC(C5)N6)nc(OC[C@@]56CCCN5[C@H](COc5cc([C@H](C(=O)N7C[C@H](O)C[C@H]7C(=O)N[C@@H](C)c7ccc(-c8scnc8C)cc7)C(C)C)on5)CC6)nc4c3F)c12
3. C#Cc1c(F)ccc2cc(O)cc(-c3ncc4c(N5CC6CCC(C5)N6)nc(OCCN5CCC(C6CN(c7cc([C@H](C(=O)N8C[C@H](O)C[C@H]8C(=O)N[C@@H](C)c8ccc(-c9scnc9C)cc8)C(C)C)on7)C6)CC5)nc4c3F)c12

1. 20 to 60%
2. 80 to 100%
3. 80 to 100%
